- test_name: Oral bioavailability in dog at 0.6 mg/kg
- Format: ADME, organism-based, Canis lupus familiaris
- experimental_setup: in vivo
property: bioavailability (%)
Output spec: scalar in %, unitless text.

Query: Using the record for `Cc1nc(NC(=O)N2CCC[C@H]2C(N)=O)sc1-c1ccnc(C(C)(C)C(F)(F)F)c1` , report its bioavailability.
Result: 140

* * *

- target: Phosphatidylinositol 4,5-bisphosphate 3-kinase catalytic subunit beta isoform (Homo sapiens)
- Sequence (P42338 whole entry, canonical isoform): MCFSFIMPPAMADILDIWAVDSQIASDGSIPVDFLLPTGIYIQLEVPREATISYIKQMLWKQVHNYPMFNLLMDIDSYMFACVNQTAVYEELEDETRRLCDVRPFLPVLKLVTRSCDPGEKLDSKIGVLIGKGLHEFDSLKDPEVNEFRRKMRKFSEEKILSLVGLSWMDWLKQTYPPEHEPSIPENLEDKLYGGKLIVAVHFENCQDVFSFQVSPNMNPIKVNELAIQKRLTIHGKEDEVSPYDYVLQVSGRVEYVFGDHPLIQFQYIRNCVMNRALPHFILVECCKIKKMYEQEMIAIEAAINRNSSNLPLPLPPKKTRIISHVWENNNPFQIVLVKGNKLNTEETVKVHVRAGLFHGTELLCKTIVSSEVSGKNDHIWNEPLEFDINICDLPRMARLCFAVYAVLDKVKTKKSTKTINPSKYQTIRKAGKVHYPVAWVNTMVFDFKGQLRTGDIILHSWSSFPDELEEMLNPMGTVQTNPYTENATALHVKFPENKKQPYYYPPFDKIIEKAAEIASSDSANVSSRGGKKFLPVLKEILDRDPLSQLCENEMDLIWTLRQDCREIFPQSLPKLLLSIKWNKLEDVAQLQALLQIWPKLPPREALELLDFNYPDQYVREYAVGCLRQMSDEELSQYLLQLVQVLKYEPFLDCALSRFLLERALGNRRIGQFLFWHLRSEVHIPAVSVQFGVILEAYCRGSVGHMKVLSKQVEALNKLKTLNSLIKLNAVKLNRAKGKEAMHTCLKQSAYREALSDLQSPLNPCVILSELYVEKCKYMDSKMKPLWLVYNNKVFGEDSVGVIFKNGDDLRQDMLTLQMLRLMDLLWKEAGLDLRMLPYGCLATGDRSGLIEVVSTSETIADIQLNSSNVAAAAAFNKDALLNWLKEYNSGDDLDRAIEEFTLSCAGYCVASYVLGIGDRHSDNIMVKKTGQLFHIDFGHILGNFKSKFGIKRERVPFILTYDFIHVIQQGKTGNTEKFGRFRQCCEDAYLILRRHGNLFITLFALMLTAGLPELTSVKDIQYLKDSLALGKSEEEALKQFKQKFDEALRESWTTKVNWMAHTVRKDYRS
- test_name: Inhibition of N-terminal myristoylated P110beta (unknown origin)-mediated AKT phosphorylation at Ser473 expressed in rat Rat1 cells by ELISA
- Type: cell-based
property: pIC50
Just so you know, pIC50 here is -log10 of the concentration in molar units; reply with that number alone.

Some molecules with known pIC50 results, for comparison:
CCN(CC)c1nccc(-c2sc(NC(=O)N3CCC[C@H]3C(N)=O)nc2C)n1 5.36
Cc1nc(NC(=O)N2CCC[C@H]2C(N)=O)sc1-c1ccc(-n2cccn2)cc1 5.68
Cc1nc(NC(=O)N2CCC[C@H]2C(N)=O)sc1-c1ccnc(C2(C)CC2)n1 5.02

Query: Using the record for `Cc1nc(NC(=O)N2CC[C@H]2C(N)=O)sc1-c1ccnc(C(C)(C)C)n1` , report its pIC50.
Result: 5.19

Query: Using the record for `Cc1nc(NC(=O)N2CCC[C@H]2C(N)=O)sc1-c1ccnc(C(C)(C)C)c1` , report its pIC50.
Result: 5.10
